# assay: Solubility of the compound in water at 0.01 g after 5 mins
# Assay type: physicochemical

[
  {
    "compound-string": "O=C(N[C@@H](CO)C(=O)O)c1cc2c([nH]c3ccccc32)c(CCC(=O)N2CCC[C@H]2C(=O)O)n1",
    "solubility": "soluble"
  },
  {
    "compound-string": "C[C@H](O)[C@H](NC(=O)c1cc2c([nH]c3ccccc32)c(CCC(=O)N2CCC[C@H]2C(=O)O)n1)C(=O)O",
    "solubility": "soluble"
  },
  {
    "compound-string": "CC(C)[C@H](NC(=O)c1cc2c([nH]c3ccccc32)c(CCC(=O)N2CCC[C@H]2C(=O)O)n1)C(=O)O",
    "solubility": "soluble"
  },
  {
    "compound-string": "C[C@H](NC(=O)c1cc2c([nH]c3ccccc32)c(CCC(=O)N2CCC[C@H]2C(=O)O)n1)C(=O)O",
    "solubility": "soluble"
  }
]
